Biological target: T1, human IL-12Rβ2 expressed on cells (human, UniProt Q99665 24-862)
T1 sequence: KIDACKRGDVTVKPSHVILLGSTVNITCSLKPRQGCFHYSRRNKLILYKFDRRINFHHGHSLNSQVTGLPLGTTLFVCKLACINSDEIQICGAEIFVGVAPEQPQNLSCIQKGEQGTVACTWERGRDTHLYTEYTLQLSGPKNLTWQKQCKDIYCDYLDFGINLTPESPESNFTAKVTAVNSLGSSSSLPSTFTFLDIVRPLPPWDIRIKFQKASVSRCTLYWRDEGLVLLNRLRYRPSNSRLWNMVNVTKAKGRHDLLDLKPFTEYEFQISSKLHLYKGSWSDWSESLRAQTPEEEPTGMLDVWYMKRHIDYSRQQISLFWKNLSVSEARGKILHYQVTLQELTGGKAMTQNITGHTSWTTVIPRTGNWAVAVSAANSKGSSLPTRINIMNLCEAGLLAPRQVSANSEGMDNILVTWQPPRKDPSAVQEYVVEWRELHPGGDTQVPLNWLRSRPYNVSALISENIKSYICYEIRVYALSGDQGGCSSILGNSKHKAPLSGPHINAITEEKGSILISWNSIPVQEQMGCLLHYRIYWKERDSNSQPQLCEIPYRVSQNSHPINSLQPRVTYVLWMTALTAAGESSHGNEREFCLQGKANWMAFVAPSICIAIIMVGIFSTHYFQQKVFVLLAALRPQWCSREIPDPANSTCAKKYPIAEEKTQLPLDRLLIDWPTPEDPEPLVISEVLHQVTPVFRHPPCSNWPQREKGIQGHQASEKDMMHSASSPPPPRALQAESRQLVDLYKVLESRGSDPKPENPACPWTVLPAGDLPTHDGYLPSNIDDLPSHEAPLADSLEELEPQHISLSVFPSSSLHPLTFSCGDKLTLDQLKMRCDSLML
Test: cell-based or functional assay
Measured property: % Specific Cell Lysis at 10 ug/mL (%)
// units = %; emit number, no label

Binder	Measured property	Unit string	Measured number
anti-IL-12Rβ2-VHH-FcDE clone 21060 (Fc fusion) QVQLQESGGGLVQAGGSLSLSCAASGSAFRLNFMGWYRQAPGKQRELVAAINSGGTEIYHDSVKGRFTISRDNADSTVWLQMNSLKPDDTAVYYCAADRGISWSKLAGGMDYWGKGTQVTVSSAPELLGGPDVFLFPPKPKDTLMISRTPEVTCVVVDVSHEDPEVKFNWYVDGVEVHNAKTKPREEQYNSTYRVVSVLTVLHQDWLNGKEYKCKVSNKALPAPEEKTISKAKGQPREPQVYTLPPSRDELTKNQVSLTCLVKGFYPSDIAVEWESNGQPENNYKTTPPVLDSDGSFFLYSKLTVDKSRWQQGNVFSCSVMHEALHNHYTQKSLSLSPGK	% Specific Cell Lysis at 10 ug/mL	%	75.5

Form: binder = anti-IL-12Rβ2-VHH-FcDE clone 21050 (Fc fusion) QVQLQESGGGLVQAGGSLRLSCAASGRTFNNYAMAWFRQAPGKEREFIAAITRSDTTLYIDSVKGRFTISRDNAKNTVALQMNSLKPEDTAVYYCAAGMPYSYSDYPRDSKYDYWGRGTQVTVSSAPELLGGPDVFLFPPKPKDTLMISRTPEVTCVVVDVSHEDPEVKFNWYVDGVEVHNAKTKPREEQYNSTYRVVSVLTVLHQDWLNGKEYKCKVSNKALPAPEEKTISKAKGQPREPQVYTLPPSRDELTKNQVSLTCLVKGFYPSDIAVEWESNGQPENNYKTTPPVLDSDGSFFLYSKLTVDKSRWQQGNVFSCSVMHEALHNHYTQKSLSLSPGK ; % Specific Cell Lysis at 10 ug/mL = 63.7

Entry under test: 20401-FcDE (Fc fusion) VHH-Fc chain: QVQLQESGGGLVQAGESLTLSCIASGVIKDYAMGWFRQAPGKEREFVAAISWSGVSIYYADSVKGRFTISRDNAKNTVYLQMNSLEPEDTAVYYCAGTEGAYTVAGGSTFGYDMDYWGKGTQVTVSSAPELLGGPDVFLFPPKPKDTLMISRTPEVTCVVVDVSHEDPEVKFNWYVDGVEVHNAKTKPREEQYNSTYRVVSVLTVLHQDWLNGKEYKCKVSNKALPAPEEKTISKAKGQPREPQVYTLPPSRDELTKNQVSLTCLVKGFYPSDIAVEWESNGQPENNYKTTPPVLDSDGSFFLYSKLTVDKSRWQQGNVFSCSVMHEALHNHYTQKSLSLSPGK . Its % Specific Cell Lysis at 10 ug/mL was 64.9

Sure, the documented % Specific Cell Lysis at 10 ug/mL for 20429-FcDE (Fc fusion) VHH-Fc chain: QVQLQESGGGLVQPGGSLRLSCKASGFTFSTYAMSWVRQAPGKGLEWVSAVNSGGLSTDYADSVEGRFTISRDDAKNMLFLQMNSLKPEDTARYYCAKYEDCSDYMCHRDRAGYWGQGTQVTVSSAPELLGGPDVFLFPPKPKDTLMISRTPEVTCVVVDVSHEDPEVKFNWYVDGVEVHNAKTKPREEQYNSTYRVVSVLTVLHQDWLNGKEYKCKVSNKALPAPEEKTISKAKGQPREPQVYTLPPSRDELTKNQVSLTCLVKGFYPSDIAVEWESNGQPENNYKTTPPVLDSDGSFFLYSKLTVDKSRWQQGNVFSCSVMHEALHNHYTQKSLSLSPGK is 67.3
